# Tested on: T-47D breast
# METHOD_DESCRIPTION: NCI-60 one-dose screen, 48 h (100 = growth as untreated, 0 = no growth, -100 = all killed)
# CONDITION_INFO: 10 µM unless noted
The panel holds about 83,000 compounds, 20% with a hit somewhere; the sample as a whole holds those more often.
Threshold-based label: growth under 90% gives class 1, growth not under 90% gives class 0.

INSERT INTO measurements (molecule, label_value) VALUES
  ('COc1ccc(-c2nc(SCCC(C)C)nc(N/N=C(/C)c3ccc(N)cc3)c2C#N)cc1', 'class 1'),
  ('COc1cc(/C=C2\CN(S(=O)(=O)c3ccc(C)cc3)C/C(=C\c3cc(CN4CCCC4)c(O)c(OC)c3)C2=O)cc(CN2CCCC2)c1O', 'class 1'),
  ('C[C@H]1c2ccccc2CN1CCCOc1cc2c(cc1OCC1CC1)C1(CCCC1)C(N)=N2', 'class 1'),
  ('CN(C)CCCN(CCC1CCCCC1)CCC1CCCCC1', 'class 1'),
  ('COc1cccc(CNc2nnc(C)c(C)n2)c1O', 'class 0'),
  ('Cc1ccc(-c2nc(C#N)c(S(=O)(=O)n3nc(C)cc3N)o2)cc1', 'class 1');

Switching to the query record.
Input Cc1ccc(C2(C)NC(=O)N(CC(=O)Nc3cccc(C)c3)C2=O)cc1 (stereo not given) ; condition: growth strictly below 90%. Does it hold? class 0

###

# Tested on: HOP-62 NSCLC
# METHOD_DESCRIPTION: NCI-60 one-dose screen, 48 h (100 = growth as untreated, 0 = no growth, -100 = all killed)
# CONDITION_INFO: 10 µM unless noted
About 83,000 compounds went through this panel and 20% of them were active in at least one assay; those are over-represented in the sample as a whole.
Attribute: growth
Numbers only here, please. The scale is %.

Answered cases to consult:
INSERT INTO measurements (smiles_structure, assayed_system, data_value) VALUES
  ('O=C(O)/C=C\C(=O)Nc1ccc2c(c1)Cc1cc(F)ccc1-2', 'HOP-62 NSCLC', 87.9),
  ('CN(C)c1ccc(/C=C/C2=[N+](C)c3ccccc3C2(C)C)cc1', 'HOP-62 NSCLC', 28.7),
  ('Cn1cc(-c2ccc3occ(-c4cccc(-c5ccncc5)c4)c3n2)cn1', 'HOP-62 NSCLC', 13.9);

Next item in the queue.
// lookup growth | system=HOP-62 NSCLC | key= `CCNc1nc(-c2ccc(Cl)c(OC)c2)c(-c2ccnc(NCCNS(=O)(=O)c3ccc(Cl)cc3)n2)s1` 21.5

###

# Tested on: EKVX NSCLC
# METHOD_DESCRIPTION: NCI-60 one-dose screen, 48 h (100 = growth as untreated, 0 = no growth, -100 = all killed)
# CONDITION_INFO: 10 µM unless noted
Compounds without any hit were thinned out: in the full panel of roughly 83,000, 20% have a hit.
Tag: T if measured growth is not below 90%, F if it is.

INSERT INTO assay_data (molecule, assayed_system, label_value) VALUES
  ('O=C(Nc1ccccc1)Nc1ccccc1CNc1nc(Nc2ccc(OCCN3CCCC3)cc2)ncc1Cl', 'EKVX NSCLC', 'F'),
  ('O=C1OCC2=C1C(c1cccc(F)c1)c1cc3c(cc1N2CCO)CCC3 (centres undefined)', 'EKVX NSCLC', 'F'),
  ('O=C(Cn1cc(CSc2nc3ccccc3o2)nn1)Nc1ccc([N+](=O)[O-])cc1', 'EKVX NSCLC', 'T'),
  ('N#C/C(=C/C=C/c1ccccc1)S(=O)c1ccccc1 (centres undefined)', 'EKVX NSCLC', 'F'),
  ('CC(=O)c1c(/C=C/c2ccc(C)cc2)c2ccccc2[nH]c1=O', 'EKVX NSCLC', 'T');

Decide: is the reported value of growth for `COc1ccc(/C=N\NC(=O)c2ccc3nc(-c4ccc(Cl)cc4)[nH]c3c2)cc1` equal to or greater than 90%? F

Decide: is the reported value of growth for `NCCNc1ccc([N+](=O)[O-])cc1` equal to or greater than 90%? T
